Entries with reported MIC on Candida albicans
property: MIC (µM)

As a guide, the following entries are already answered.
q: Can you share its MIC? I mean this molecule: `CCCCCCCCCCCCCC[N+](C)(C)CCCCCCCCCCCS`
a: 1520

q: Can you share its MIC? I mean this molecule: `CCCCCCCCCCCC[N+](C)(C)CCCCCCCCCCCS`
a: 39.5

a. CCCCCCCCCC[N+](C)(C)CCCCCCCCCCCS
b. C[N+](C)(C)CCCCCCCCCCCS
c. CCCCCCCCCCCCCC[N+](C)(C)Cc1ccccc1 [MIRISTALKONIUM CHLORIDE]
d. C[N+](C)(CCCCCCCCCCCS)Cc1ccccc1
q: Ascending by MIC, please: list the molecules accordingly. Returns: the labels listed in the requested order.
a: c, a, d, b
(c: 8.36 µM, a: 31.6 µM, d: 472 µM, b: 1120 µM)
